Ref: the supplement of paper PMC6555819

# Tested on: RARb:RXRa (NR concentration 270 nM, RXRa partner concentration 90 nM)
# Protocol Description: PBM binding z-score (relative to random genomic background probes); higher = stronger binding; sequences stand for … in GC…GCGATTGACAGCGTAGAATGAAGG
Label met when PBM binding z-score is at or above 2; otherwise label not met.

TCTTGAAGATCAAAGGTTAAGAAAGCCGAAGCCT    met
AGAACGAGGGCACGTTGAGTTGATAGCAGAGTAG    met
CCTAACGGGTCAAGGTTATAGCACGGGTGGTACG    met

Req: Item ATCTAAAGGTCGAGGTGAGTATAGAGAAAGGGAA with PBM binding z-score of 2 or above?
Resp: met

Req: Quick check: does CCTACTGGGCCAAACGTCATTGATTCCAATGCTC have PBM binding z-score greater than or equal to 2?
Resp: not met

Req: Is the recorded value of PBM binding z-score equal to or greater than 2 for this sequence? GAAGACAGGTGAAACGCAGGTAACTCAGGGTGGC
Resp: not met

Req: Reported PBM binding z-score at or above 2? GAATATAGGTAATACAAGGTGAAAGTCCGATTGT
Resp: not met

Req: Exam item: decide whether the reported PBM binding z-score for TCTGCTAGGTCAGTTGGTCAGCTTACGAGCTGCC is at least 2.
Resp: met

Req: Would you say CGTCCAAGGTCAAAGGTCAGTGGAGAGATGACGG shows PBM binding z-score at minimum 2?
Resp: met

* * *

PBM binding z-score by entry:
# Tested on: PPARg:RXRa 90nM:30nM, anti-RXR (NR concentration 90 nM, RXRa partner concentration 30 nM)
# Protocol Description: PBM binding z-score (relative to random genomic background probes); higher = stronger binding; sequences stand for … in GC…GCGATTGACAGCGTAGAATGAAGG

CTCGAAAGGTCGGTTCAGGTGAGTATACGGATAA    0.769
TCAAGTAGGTTAGGGGCATTCAGAATGGCGTCGA    3.65
CCTTACTGGTCACTCCAGGTTATAGCATCGGAGT    0.0913
CCTACTAGGTCAATGGTCAGCTAAAGCAGCTCGC    7.71
CGTCCAAGGTCAGAGAGGTCTGTGAATGCCGAGT    1.45

Req: Assign PBM binding z-score to the following record: GCTAGTTGGTCAGTATAAGGTCACACACCGGTCG
Resp: 1.37

Req: Look up and state reported PBM binding z-score for TCTTGTAGATCAAACGTTAAGAAAGCCGAAGCCT
Resp: 3.48

Req: Fill in PBM binding z-score for record ATCTCTAGGTAAAGTTCAGTTAAAGATCGATAGA
Resp: 3.95

Req: Report measured PBM binding z-score; entry is CCTTACGGGTCACTGACGGGTTATAGCATTTGGA
Resp: 2.74

* * *

# PBM binding z-score listing for each entry below
# System: PPARg:RXRa 270nM:90nM, anti-RXR (NR concentration 270 nM, RXRa partner concentration 90 nM)
# Protocol Description: PBM binding z-score (relative to random genomic background probes); higher = stronger binding; sequences stand for … in GC…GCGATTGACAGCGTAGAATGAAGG

GCTGCGAGGTCAGGTTGGTCAGCTAACGGGTACG    2.99
GGAACAAGGGCATTCGAGTTGATAGCATGGCGAT    0.531
CCTAGTGGGTCAAGGTCACACACGCTATAGGTAC    7.42

Req: Report PBM binding z-score for TCAATTAGTTGAAGGGCAACCGACGAGTCCGTTT
Resp: 2.03

Req: Answer with reported PBM binding z-score of ACAGACAGGTGAGTGAAGGTAGCTCAGCTGGACG
Resp: 0.0552

Req: Give PBM binding z-score for CGCGAAAGGTCGGTTGAGGTGAGTATACGGATAA
Resp: 1.45

Req: Fill in reported PBM binding z-score for this entry: GCAGACAGGTGAAACGCAGGTTACTCAGGGTGGC
Resp: 0.0459

Req: Identify measured PBM binding z-score associated with TCTCGGAGGACACGAAAGGTTAGAGCTCGACATC
Resp: 1.69

Req: Fill in PBM binding z-score for record CCTACTGGGCCATTCAGAGGTCATTGCTCATATG
Resp: 2.92

Req: Find the measured PBM binding z-score of TAGCCTAGGTCATTGGGCCAGTATGGTACGCATC and report it.
Resp: 3.7

Req: Indicate the recorded PBM binding z-score value for this sequence: GCAGATAGGTAATACAAGGTGAAAGTCCGATTGT
Resp: 0.592

Req: Give recorded PBM binding z-score. ATCGAAAGGTCGACGAGGTGAGCATACACCGTTT
Resp: 3.33

Req: Query PBM binding z-score for GTTAGCAGGCCATTTGGGTCACTCAATGACGGGC
Resp: 0.698

Req: Consider the sequence ATCTCCAGGTAACCAAGTTCAGTGAATGCCGAAC . State its measured PBM binding z-score.
Resp: 0.427

Req: Tell me its PBM binding z-score given GCTAGTTGGTTAGTAAAAGGTCACACACCGGTCG as the entry.
Resp: 3.55

Req: Given the sequence TAGCCTAGCTCAGATCGGGCCAGTATACGCTATA , write its reported PBM binding z-score.
Resp: -0.972
